test system: MCF7; assay: Cytotoxicity against human MCF7 cells after 48 hrs by MTT assay; assay type: functional, cell-based; details: MCF7, 48 h
Each entry below lists one item and its recorded IC50 value.
Just the number please, in µM, no unit attached.

Here is how some molecules turned out for IC50.
Sample O=S(=O)(Oc1ccc(Cl)cc1)c1ccc2[nH]c3ccncc3c2c1 ; IC50 observed: 26.3

Sample CCn1c2ccncc2c2cc(NC(=O)c3ccccc3)ccc21 ; IC50 observed: 11.8

Sample O=S(=O)(Oc1cccc2ccccc12)c1ccc2[nH]c3ccncc3c2c1 ; IC50 observed: 14.3

Sample CCn1c2ccncc2c2cc(S(=O)(=O)Nc3cc(OC)c(OC)c(OC)c3)ccc21 ; IC50 observed: 5.8

Sample CCN(c1cc(OC)c(OC)c(OC)c1)S(=O)(=O)c1ccc2c(c1)c1cnccc1n2CC ; IC50 observed: 2.07

Sample O=[N+]([O-])c1ccc(OS(=O)(=O)c2ccc3[nH]c4ccncc4c3c2)cc1 ; IC50 observed: 10.8

Sample CCn1c2ccncc2c2cc(NC(=O)c3ccccc3O)ccc21 ; IC50 observed: 20.9

Sample CCn1c2ccncc2c2cc(S(=O)(=O)Nc3ccc4c(ccn4C)c3)ccc21 ; IC50 observed: 4.99

New cases:
Sample COc1ccccc1OS(=O)(=O)c1ccc2[nH]c3ccncc3c2c1 ; IC50 observed: 24.7

Sample O=S(=O)(Nc1cccc2ncccc12)c1ccc2[nH]c3ccncc3c2c1 ; IC50 observed: 23.7

Sample CCn1c2ccncc2c2cc(NC(=O)c3ccc(Br)cc3)ccc21 ; IC50 observed: 11.9

Sample O=S(=O)(Oc1ccccc1)c1ccc2[nH]c3ccncc3c2c1 ; IC50 observed: 38.6

Sample COc1cc(NS(=O)(=O)c2ccc3[nH]c4ccncc4c3c2)cc(OC)c1OC ; IC50 observed: 19.2

Sample CCn1c2ccncc2c2cc(S(=O)(=O)Nc3ccccc3)ccc21 ; IC50 observed: 0.88

Sample COc1cc(OS(=O)(=O)c2ccc3[nH]c4ccncc4c3c2)cc(OC)c1OC ; IC50 observed: 0.86

Sample CCn1c2ccncc2c2cc(NC(=O)c3cccnc3)ccc21 ; IC50 observed: 18.1

====

test system: K562; test: Cytotoxicity against multidrug-resistant human K562 cells after 48 hrs by MTT assay; type: functional, cell-based; conditions: K562, 48 h
VALUE TYPE: pIC50
Kindly note that pIC50 refers to -log10 of the concentration in mol/L and answer with the value alone.

Sample COc1cc(NS(=O)(=O)c2ccc3[nH]c4ccncc4c3c2)cc(OC)c1OC ; pIC50 observed: 4.13

Continue with the next compound.
Sample CCn1c2ccncc2c2cc(NC(=O)c3ccc(OC)cc3)ccc21 ; pIC50 observed: 5.29

====

test: Cytotoxicity against human SGC cells after 48 hrs by MTT assay; assay type: functional, cell-based
Each entry below lists one item and its recorded pIC50 value.
Kindly note that pIC50 refers to -log10 of the concentration in mol/L and answer with the value alone.

Sample CCn1c2ccncc2c2cc(NC(=O)c3ccccc3Cl)ccc21 ; pIC50 observed: 4.68

Sample COc1ccccc1OS(=O)(=O)c1ccc2[nH]c3ccncc3c2c1 ; pIC50 observed: 4.27

Sample COc1ccc(OS(=O)(=O)c2ccc3[nH]c4ccncc4c3c2)cc1 ; pIC50 observed: 4.67

Sample CCn1c2ccncc2c2cc(S(=O)(=O)Nc3ccccc3)ccc21 ; pIC50 observed: 5.10

Sample CCn1c2ccncc2c2cc(NC(=O)c3cc(OC)c(OC)c(OC)c3)ccc21 ; pIC50 observed: 4.79

====

experiment: Cytotoxicity against human SGC cells after 48 hrs by MTT assay; format: functional, cell-based
Each entry below lists one item and its recorded log10 IC50 value.
Short version: log10 scale, IC50, µM.

Here is how some compounds turned out for log10 IC50.
Sample Nc1ccc(OS(=O)(=O)c2ccc3[nH]c4ccncc4c3c2)cc1 ; log10 IC50 observed: 0.33

Sample CCn1c2ccncc2c2cc(NC(=O)c3ccc(S(C)(=O)=O)cc3)ccc21 ; log10 IC50 observed: 1.56

Sample CCN(c1cc(OC)c(OC)c(OC)c1)S(=O)(=O)c1ccc2c(c1)c1cnccc1n2CC ; log10 IC50 observed: 1.14

Sample O=S(=O)(Oc1cccc(Cl)c1)c1ccc2[nH]c3ccncc3c2c1 ; log10 IC50 observed: 0.76

Continue with the next compound.
Sample O=S(=O)(Nc1cccc2ncccc12)c1ccc2[nH]c3ccncc3c2c1 ; log10 IC50 observed: 1.98

====

Each entry below lists one item and its recorded IC50 value.
system: K562; experiment: Cytotoxicity against multidrug-resistant human K562 cells after 48 hrs by MTT assay; format: functional, cell-based; conditions: K562, 48 h

Observed IC50, K562, CCN(c1cc(OC)c(OC)c(OC)c1)S(=O)(=O)c1ccc2c(c1)c1cnccc1n2CC : 3.02 µM

Observed IC50, K562, CCn1c2ccncc2c2cc(NC(=O)c3ccc(Br)cc3)ccc21 : 15.6 µM

New cases:
Observed IC50, K562, CCn1c2ccncc2c2cc(NC(=O)c3ccccc3O)ccc21 : 22.9 µM

====

tested on: K562; test: Cytotoxicity against multidrug-resistant human K562 cells after 48 hrs by MTT assay; format: functional, cell-based; conditions: K562, 48 h
VALUE TYPE: IC50 (µM)
Just the number please, in µM, no unit attached.

Here is how some molecules turned out for IC50.
Sample O=S(=O)(Nc1cccc2ncccc12)c1ccc2[nH]c3ccncc3c2c1 ; IC50 observed: 18.5

Sample CCn1c2ccncc2c2cc(NC(=O)c3ccc(S(C)(=O)=O)cc3)ccc21 ; IC50 observed: 96.6

Sample CCn1c2ccncc2c2cc(NC(=O)c3cccnc3)ccc21 ; IC50 observed: 40.6

Continue with the next molecule.
Sample O=S(=O)(Oc1cccc(Cl)c1)c1ccc2[nH]c3ccncc3c2c1 ; IC50 observed: 8.42

====

Each entry below lists one item and its recorded pIC50 value.
test system: MCF7; assay: Cytotoxicity against human MCF7 cells after 48 hrs by MTT assay; assay type: functional, cell-based; settings: MCF7, 48 h
Kindly note that pIC50 refers to -log10 of the concentration in mol/L and answer with the value alone.

Sample COc1ccc(OS(=O)(=O)c2ccc3[nH]c4ccncc4c3c2)cc1 ; pIC50 observed: 4.80

Sample O=S(=O)(Oc1cccc(Cl)c1)c1ccc2[nH]c3ccncc3c2c1 ; pIC50 observed: 4.32

New cases:
Sample CCn1c2ccncc2c2cc(NC(=O)c3ccc(OC)cc3)ccc21 ; pIC50 observed: 5.31

Sample CCn1c2ccncc2c2cc(NC(=O)c3ccccc3Cl)ccc21 ; pIC50 observed: 5.19

Sample Nc1ccc(OS(=O)(=O)c2ccc3[nH]c4ccncc4c3c2)cc1 ; pIC50 observed: 4.78

Sample CCn1c2ccncc2c2cc(NC(=O)c3ccc(S(C)(=O)=O)cc3)ccc21 ; pIC50 observed: 4.64

====

experiment: Cytotoxicity against human SGC cells after 48 hrs by MTT assay; assay type: functional, cell-based
VALUE TYPE: IC50

Here is how some molecules turned out for IC50.
Sample O=S(=O)(Oc1ccccc1)c1ccc2[nH]c3ccncc3c2c1 ; IC50 observed: > 100 µM

Sample CCn1c2ccncc2c2cc(S(=O)(=O)Nc3cc(OC)c(OC)c(OC)c3)ccc21 ; IC50 observed: > 100 µM

Continue with the next molecule.
Sample CCn1c2ccncc2c2cc(S(=O)(=O)Nc3ccncc3)ccc21 ; IC50 observed: > 100 µM
